- Target Or Test System: sGC α1/β1 heterodimer (Homo sapiens, UniProt Q02108+Q02153)
- Sequence (Q02108 1-690): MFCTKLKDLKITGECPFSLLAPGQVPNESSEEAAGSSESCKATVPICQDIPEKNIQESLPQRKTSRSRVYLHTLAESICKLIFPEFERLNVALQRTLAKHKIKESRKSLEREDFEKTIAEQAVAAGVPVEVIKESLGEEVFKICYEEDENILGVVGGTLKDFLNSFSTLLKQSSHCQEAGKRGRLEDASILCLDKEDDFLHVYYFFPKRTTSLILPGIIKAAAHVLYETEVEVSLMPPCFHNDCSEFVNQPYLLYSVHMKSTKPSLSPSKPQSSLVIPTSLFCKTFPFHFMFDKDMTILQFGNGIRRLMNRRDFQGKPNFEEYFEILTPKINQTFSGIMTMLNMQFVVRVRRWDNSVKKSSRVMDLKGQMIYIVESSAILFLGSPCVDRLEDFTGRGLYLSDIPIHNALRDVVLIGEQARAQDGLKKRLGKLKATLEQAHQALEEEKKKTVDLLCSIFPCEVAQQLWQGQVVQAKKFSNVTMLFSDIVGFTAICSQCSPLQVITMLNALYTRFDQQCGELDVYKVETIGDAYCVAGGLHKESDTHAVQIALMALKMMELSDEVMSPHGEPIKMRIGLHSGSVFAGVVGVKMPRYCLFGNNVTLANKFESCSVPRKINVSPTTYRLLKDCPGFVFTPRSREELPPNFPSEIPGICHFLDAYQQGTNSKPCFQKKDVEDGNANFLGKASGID
- Sequence (Q02153 1-619): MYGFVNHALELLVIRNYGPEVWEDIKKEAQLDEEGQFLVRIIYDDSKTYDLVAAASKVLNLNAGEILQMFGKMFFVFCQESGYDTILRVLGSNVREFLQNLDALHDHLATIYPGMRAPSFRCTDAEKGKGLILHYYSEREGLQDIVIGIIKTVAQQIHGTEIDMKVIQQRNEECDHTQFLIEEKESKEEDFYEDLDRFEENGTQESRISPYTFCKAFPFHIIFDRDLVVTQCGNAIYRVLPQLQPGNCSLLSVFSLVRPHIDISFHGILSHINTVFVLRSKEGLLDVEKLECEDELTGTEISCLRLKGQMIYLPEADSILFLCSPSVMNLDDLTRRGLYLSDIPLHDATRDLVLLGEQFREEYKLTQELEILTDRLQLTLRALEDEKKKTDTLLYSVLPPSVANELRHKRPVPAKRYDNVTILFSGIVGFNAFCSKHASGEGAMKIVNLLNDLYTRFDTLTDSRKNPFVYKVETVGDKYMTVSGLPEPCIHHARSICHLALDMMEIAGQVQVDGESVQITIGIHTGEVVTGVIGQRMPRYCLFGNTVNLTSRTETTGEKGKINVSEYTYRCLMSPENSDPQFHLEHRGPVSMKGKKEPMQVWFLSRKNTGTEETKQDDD
- Experimental Details: Cell-Based sGC Functional Assay (CASA Assay)
- Conditions Used: CHO-K1/sGC cells, intracellular cGMP by HTRF, 1 hr at 37° C.; IP from 4P fit; presence or absence of 1 μM DETA-NO not given
Measurement Name: EC50 (nM)

Known results for compounds:
- Compound: "Cn1ncc2c(-c3nc(N)c4c(n3)NC(=O)C4(C)C3CCCCC3)nc(CCC(F)(F)C(F)(F)F)nc21 (single isomer, unassigned) [Example 18]"
  Measurement Name: "EC50"
  Recorded Result: 171
- Compound: "CC1(c2ccc(F)cc2)C(=O)Nc2nc(-c3nc(CCC(F)(F)C(F)(F)F)nc4[nH]ncc34)nc(N)c21 (single isomer, unassigned) [Example 8]"
  Measurement Name: "EC50"
  Recorded Result: 341
- Compound: "COc1ccc(C2(C)C(=O)Nc3nc(-c4nc(CCC(F)(F)C(F)(F)F)nc5c4cnn5C)nc(N)c32)cc1F (single isomer, unassigned) [Example 16]"
  Measurement Name: "EC50"
  Recorded Result: 15
- Compound: "Cn1ccc2c(-c3nc(N)c4c(n3)NC(=O)C4(C)C)nc(CCC(F)(F)C(F)(F)F)nc21 [Example 63]"
  Measurement Name: "EC50"
  Recorded Result: 502

I: [2H]C([2H])([2H])n1ncc2c(-c3nc(N)c4c(n3)NC(=O)C4(C(=O)NC3CC3)C(C)C)nc(CCC(F)(F)C(F)(F)F)nc21 (single isomer, unassigned) [Example 35]
II: CCOC(=O)C1(C2CC2)C(=O)Nc2nc(-c3nc(CCC(F)(F)C(F)(F)F)nc4c3cnn4C)nc(N)c21 (single isomer, unassigned) [Example 26]
III: Cn1ncc2c(-c3nc(N)c4c(n3)NC(=O)C4(C)C#N)nc(CCC(F)(F)C(F)(F)F)nc21 (single isomer, unassigned) [Example 49]
IV: [2H]C([2H])([2H])n1ncc2c(-c3nc(N)c4c(n3)NC(=O)C4(C(N)=O)C(C)C)nc(CCC(F)(F)C(F)(F)F)nc21 (single isomer, unassigned) [Example 37]
V: [2H]C([2H])([2H])n1ncc2c(-c3nc(N)c4c(n3)NC(=O)C4(C)c3ccc(F)cc3)nc(CCC(F)(F)C(F)(F)F)nc21 (single isomer, unassigned) [Example 2]
Put these in order: smallest EC50 first, largest last. To answer, write out the labels according to the requested order. V, I, III, IV, II

1: Cn1ncc2c(-c3nc(N)c4c(n3)NC(=O)C4(C)NC(=O)CC3CC3)nc(CCC(F)(F)C(F)(F)F)nc21 (stereo not drawn) [Example 52]
2: [2H]C([2H])([2H])n1ncc2c(-c3nc(N)c4c(n3)NC(=O)C4(C)C)nc(CCC(F)(F)C(F)(F)F)nc21 [Example 12]
# min-compare on EC50 between 1 and 2 Kindly give the label for the entry you pick. 2
